Target: T1, human C1s (human, UniProt P09871 16-688)
T1 construct: Analyte in the Biacore assays; also called hC1s; serum-derived human C1s (CompTech)
T1 sequence: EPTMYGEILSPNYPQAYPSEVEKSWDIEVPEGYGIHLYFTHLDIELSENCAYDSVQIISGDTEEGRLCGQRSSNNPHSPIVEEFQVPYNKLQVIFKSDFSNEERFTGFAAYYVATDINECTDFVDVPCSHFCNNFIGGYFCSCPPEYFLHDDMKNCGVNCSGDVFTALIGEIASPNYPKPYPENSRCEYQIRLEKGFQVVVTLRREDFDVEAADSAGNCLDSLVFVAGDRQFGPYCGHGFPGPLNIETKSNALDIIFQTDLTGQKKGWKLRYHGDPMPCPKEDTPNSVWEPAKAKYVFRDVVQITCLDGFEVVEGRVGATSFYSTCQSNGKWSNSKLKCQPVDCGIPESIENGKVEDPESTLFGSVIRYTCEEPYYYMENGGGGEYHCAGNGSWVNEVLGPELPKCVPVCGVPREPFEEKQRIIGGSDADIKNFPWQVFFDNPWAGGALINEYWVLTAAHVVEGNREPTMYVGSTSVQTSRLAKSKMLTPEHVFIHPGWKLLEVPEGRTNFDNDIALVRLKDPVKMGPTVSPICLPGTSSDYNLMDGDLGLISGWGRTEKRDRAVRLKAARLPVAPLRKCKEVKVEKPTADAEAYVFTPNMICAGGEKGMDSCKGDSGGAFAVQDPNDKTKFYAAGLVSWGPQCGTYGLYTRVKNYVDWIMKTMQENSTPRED
Experiment: SPR; KD at pH 5.8 (3 uM Ca) over KD at pH 7.4 (1.2 mM Ca)
Measured quantity: KD 5(-)/7(+)

As a guide, the following entries are already answered.
- Binder: "C1_IPN92H0091-SG4GK/IPN93L0024-SK1 (antibody, human IgG4 S228P, kappa, name in Kabat numbering, V domains shown, Substitutions from IPN009VH2, Kabat numbering; also called IPN92H0091/IPN93L0024) VH: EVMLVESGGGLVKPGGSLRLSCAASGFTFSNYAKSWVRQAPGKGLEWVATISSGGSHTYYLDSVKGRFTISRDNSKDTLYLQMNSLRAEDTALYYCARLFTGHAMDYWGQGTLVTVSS VL: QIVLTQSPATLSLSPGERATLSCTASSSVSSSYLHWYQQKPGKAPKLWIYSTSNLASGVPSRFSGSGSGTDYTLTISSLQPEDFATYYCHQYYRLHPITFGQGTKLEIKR"
  KD 5(-)/7(+): 1.28
- Binder: "C1_IPN92H0193-SG4GK/IPN93L0024-SK1 (antibody, human IgG4 S228P, kappa, name in Kabat numbering, V domains shown, Substitutions from IPN009VH2, Kabat numbering; also called IPN92H0193/IPN93L0024) VH: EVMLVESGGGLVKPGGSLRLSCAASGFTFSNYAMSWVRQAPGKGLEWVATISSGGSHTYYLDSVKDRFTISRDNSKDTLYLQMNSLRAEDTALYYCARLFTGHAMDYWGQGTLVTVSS VL: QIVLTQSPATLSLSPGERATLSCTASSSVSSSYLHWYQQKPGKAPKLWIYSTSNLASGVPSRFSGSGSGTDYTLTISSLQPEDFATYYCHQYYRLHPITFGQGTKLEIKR"
  KD 5(-)/7(+): 3.47
- Binder: "C1_IPN92H0079-SG4GK/IPN93L0024-SK1 (antibody, human IgG4 S228P, kappa, name in Kabat numbering, V domains shown, Substitutions from IPN009VH2, Kabat numbering; also called IPN92H0079/IPN93L0024) VH: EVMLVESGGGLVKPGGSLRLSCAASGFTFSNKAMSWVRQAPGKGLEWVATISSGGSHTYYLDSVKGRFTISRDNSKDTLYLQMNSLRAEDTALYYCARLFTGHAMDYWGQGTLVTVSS VL: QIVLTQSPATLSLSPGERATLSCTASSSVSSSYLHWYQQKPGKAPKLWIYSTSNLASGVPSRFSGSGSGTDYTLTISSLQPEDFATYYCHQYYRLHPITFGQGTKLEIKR"
  KD 5(-)/7(+): 2.6
- Binder: "C1_IPN92H0232-SG4GK/IPN93L0024-SK1 (antibody, human IgG4 S228P, kappa, name in Kabat numbering, V domains shown, Substitutions from IPN009VH2, Kabat numbering; also called IPN92H0232/IPN93L0024) VH: EVMLVESGGGLVKPGGSLRLSCAASGFTFSNYAMSWVRQAPGKGLEWVATISSGGSHTYYLDSVKGRFTISRDNSKDTLYLQMNSLRAEDTALYYCARLFTRHAMDYWGQGTLVTVSS VL: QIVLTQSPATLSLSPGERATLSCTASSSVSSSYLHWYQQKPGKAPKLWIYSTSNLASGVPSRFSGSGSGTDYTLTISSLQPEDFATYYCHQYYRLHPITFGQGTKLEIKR"
  KD 5(-)/7(+): 3.46
- Binder: "C1_IPN92H0033-SG4GK/IPN93L0090-SK1 (antibody, human IgG4 S228P, kappa, name in Kabat numbering, V domains shown, VL substitutions from IPN009VK3, Kabat numbering; also called IPN92H0033/IPN93L0090) VH: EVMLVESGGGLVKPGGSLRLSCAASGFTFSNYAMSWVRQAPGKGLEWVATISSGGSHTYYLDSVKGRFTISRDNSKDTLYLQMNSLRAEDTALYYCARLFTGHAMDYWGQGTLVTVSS VL: QIVLTQSPATLSLSPGERATLSCTASSSVSSSKLHWYQQKPGKAPKLWIYSTSNLASGVPSRFSGSGSGTDYTLTISSLQPEDFATYYCHQYYRLHPITFGQGTKLEIKR"
  KD 5(-)/7(+): 5.13

For each of the items listed, what is its KD 5(-)/7(+)?
1. C1_IPN92H0162-SG4GK/IPN93L0024-SK1 (antibody, human IgG4 S228P, kappa, name in Kabat numbering, V domains shown, Substitutions from IPN009VH2, Kabat numbering; also called IPN92H0162/IPN93L0024) VH: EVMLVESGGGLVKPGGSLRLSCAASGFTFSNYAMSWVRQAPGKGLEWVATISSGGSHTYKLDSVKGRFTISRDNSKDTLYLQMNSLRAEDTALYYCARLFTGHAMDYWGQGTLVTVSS VL: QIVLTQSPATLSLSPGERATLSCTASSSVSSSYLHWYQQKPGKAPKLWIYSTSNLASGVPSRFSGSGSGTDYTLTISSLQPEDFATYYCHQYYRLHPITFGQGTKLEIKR
2. C1_IPN92H0288-SG4GK/IPN93L0212-SK1 (antibody, human IgG4 S228P, kappa, name in Kabat numbering, V domains shown, VL substitutions from IPN009VK3, Kabat numbering; also called IPN92H0288/IPN93L0212) VH: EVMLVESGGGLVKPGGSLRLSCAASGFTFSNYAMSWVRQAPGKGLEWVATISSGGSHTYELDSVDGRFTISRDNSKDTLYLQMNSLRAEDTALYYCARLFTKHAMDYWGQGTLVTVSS VL: QIVLTQSPATLSLSPGERATLSCTASSEVSESRLHWYQQKPGKAPKLWIYSTSNLASGVPSRFSGSGSGTDYTLTISSLQPEDFATYYCHQYYRLHPITFGQGTKLEIKR
3. C1_IPN92H0165-SG4GK/IPN93L0024-SK1 (antibody, human IgG4 S228P, kappa, name in Kabat numbering, V domains shown, Substitutions from IPN009VH2, Kabat numbering; also called IPN92H0165/IPN93L0024) VH: EVMLVESGGGLVKPGGSLRLSCAASGFTFSNYAMSWVRQAPGKGLEWVATISSGGSHTYYDDSVKGRFTISRDNSKDTLYLQMNSLRAEDTALYYCARLFTGHAMDYWGQGTLVTVSS VL: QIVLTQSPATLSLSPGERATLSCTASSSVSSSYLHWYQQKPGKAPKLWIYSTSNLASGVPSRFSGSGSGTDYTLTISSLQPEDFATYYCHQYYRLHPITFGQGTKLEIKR
4. C1_IPN92H0117-SG4GK/IPN93L0024-SK1 (antibody, human IgG4 S228P, kappa, name in Kabat numbering, V domains shown, Substitutions from IPN009VH2, Kabat numbering; also called IPN92H0117/IPN93L0024) VH: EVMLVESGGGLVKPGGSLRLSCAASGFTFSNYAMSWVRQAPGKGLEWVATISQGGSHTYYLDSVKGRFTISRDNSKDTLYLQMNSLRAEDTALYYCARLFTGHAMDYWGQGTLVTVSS VL: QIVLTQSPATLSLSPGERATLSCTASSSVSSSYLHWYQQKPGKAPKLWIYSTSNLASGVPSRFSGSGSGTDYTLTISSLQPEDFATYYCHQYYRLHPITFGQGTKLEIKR
5. C1_IPN92H0080-SG4GK/IPN93L0024-SK1 (antibody, human IgG4 S228P, kappa, name in Kabat numbering, V domains shown, Substitutions from IPN009VH2, Kabat numbering; also called IPN92H0080/IPN93L0024) VH: EVMLVESGGGLVKPGGSLRLSCAASGFTFSNRAMSWVRQAPGKGLEWVATISSGGSHTYYLDSVKGRFTISRDNSKDTLYLQMNSLRAEDTALYYCARLFTGHAMDYWGQGTLVTVSS VL: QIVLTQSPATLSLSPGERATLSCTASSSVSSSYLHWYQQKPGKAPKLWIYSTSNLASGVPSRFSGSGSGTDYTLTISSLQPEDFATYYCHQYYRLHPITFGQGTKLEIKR

Data returned:
1. 2.72
2. 3.75
3. 4.62
4. 2.26
5. 2.86
